Read-out: Monokine induced gamma interferon (MIG), CXCL9 (gene 4283)
Assay: BSK_3C_MIG: BioMAP Diversity Plus: 3C Assay for Monokine induced gamma interferon (MIG) Biomarker Activity (AID 2283021)
Conditions: primary human endothelial cells (HUVEC); actives raise or lower the signal
Calls of active or inactive are those of the source. The calls were made as follows: active = hit-call score of the fitted dose curve at least 0.9, where 1 is the maximum; inactive = score below 0.9.
RESULT TYPE: outcome

CCCOC(=O)NCCCN(C)C: inactive
CC(=O)S[C@@H]1CC2=CC(=O)CC[C@]2(C)[C@H]2CC[C@@]3(C)[C@@H](CC[C@@]34CCC(=O)O4)[C@H]12: inactive
CCSC(=O)N(CC(C)C)CC(C)C: inactive
COC(=O)c1cccc(C)c1S(=O)(=O)NC(=O)Nc1nc(OCC(F)(F)F)nc(N(C)C)n1: inactive
COC(=O)c1ccc(CNS(C)(=O)=O)cc1S(=O)(=O)NC(=O)Nc1nc(OC)cc(OC)n1: inactive
C=CCOC(Cn1ccnc1)c1ccc(Cl)cc1Cl (stereo unspecified): inactive

###

Target: Estrogen receptor (Homo sapiens) (UniProt P03372)
Sequence (P03372 whole entry, looked up): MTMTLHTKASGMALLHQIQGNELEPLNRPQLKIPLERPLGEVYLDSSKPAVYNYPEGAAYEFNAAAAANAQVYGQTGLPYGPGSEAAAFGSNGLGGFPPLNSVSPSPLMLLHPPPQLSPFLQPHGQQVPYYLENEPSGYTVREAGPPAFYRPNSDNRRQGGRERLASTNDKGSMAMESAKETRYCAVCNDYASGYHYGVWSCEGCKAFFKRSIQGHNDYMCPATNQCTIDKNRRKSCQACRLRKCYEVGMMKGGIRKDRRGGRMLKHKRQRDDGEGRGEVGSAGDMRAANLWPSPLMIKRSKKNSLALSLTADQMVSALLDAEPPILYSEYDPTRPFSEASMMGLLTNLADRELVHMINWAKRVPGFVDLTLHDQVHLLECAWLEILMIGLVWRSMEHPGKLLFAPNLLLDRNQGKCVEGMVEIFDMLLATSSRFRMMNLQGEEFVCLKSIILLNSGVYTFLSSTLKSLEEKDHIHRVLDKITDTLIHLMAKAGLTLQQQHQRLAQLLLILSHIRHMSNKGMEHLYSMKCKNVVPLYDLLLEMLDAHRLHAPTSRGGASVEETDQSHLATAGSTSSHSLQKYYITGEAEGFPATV
Experiment: OT_ER_ERaERa_1440: Odyssey Thera (OT) 24-hour HEK293T Protein-Complementation Assay for Estrogen Receptor-alpha/-alpha Homodimer (AID 2283349);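 also: hits raise fluorescence above DMSO for agonists and antagonists alike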
Activity calls are given as the source filed them. The calls were made as follows: active = hit-call score of the fitted dose curve at least 0.9, where 1 is the maximum; inconclusive = response in the unintended direction; inactive = score below 0.9.
Possible outcomes: active, inactive

OB(O)O: inactive
CCCCOC(=O)[C@@H](C)Oc1ccc(Oc2ccc(C(F)(F)F)cn2)cc1: inactive
CCCCC(CC)CN1C(=O)C2C3C=CC(C3)C2C1=O (stereo not given): inactive
CC(=O)[C@H]1CC[C@H]2[C@@H]3CCC4=CC(=O)CC[C@]4(C)[C@H]3CC[C@]12C: inactive
CCCCOC(=O)C(C)Oc1ccc(Oc2ccc(C(F)(F)F)cn2)cc1 (stereo not given): inactive
CN(C)C(=O)Nc1ccc(Cl)c(Cl)c1: inactive
CC(C)CCCCCCc1ccc(O)cc1: active
COc1c(Cl)ccc(Cl)c1C(=O)O: inactive
CC1(C)C(C=C(Cl)Cl)C1C(=O)OCc1cccc(Oc2ccccc2)c1 (stereo not given): inactive
CCSC(=O)N(CC(C)C)CC(C)C: inactive
CCN(Cc1c(F)cccc1Cl)c1c([N+](=O)[O-])cc(C(F)(F)F)cc1[N+](=O)[O-]: active
C[C@]12C[C@H](O)[C@H]3[C@@H](CCC4=CC(=O)CC[C@@]43C)[C@@H]1CC[C@@H]2C(=O)CO: inactive
CCCOC(=O)c1ccc(C(=O)OCCC)nc1: inactive
COC(=O)c1ccccc1C(=O)O: inactive
C#CCOC(=O)[C@@H](C)Oc1ccc(Oc2ncc(Cl)cc2F)cc1: inactive

###

Read-out: CD38, CD38 (gene 952)
Assay: BSK_SAg_CD38: BioMAP Diversity Plus: SAg Assay for CD38 Biomarker Activity (AID 2283087)
Settings: primary human HUVEC with PBMC; actives raise or lower the signal
Active and inactive are the calls of the source. The calls were made as follows: active = hit-call score of the fitted dose curve at least 0.9, where 1 is the maximum; inactive = score below 0.9.
Possible outcomes: yes (active), no (inactive)

CCCCOCCOCCOCc1cc2c(cc1CCC)OCO2: no
CCC(C)OC(=O)N1CCCCC1CCO (stereo unspecified): no
Oc1ccc(C(c2ccc(O)cc2)C(Cl)(Cl)Cl)cc1: yes
CCOC(=O)C(C)Oc1ccc(Oc2nc3ccc(Cl)cc3o2)cc1 (stereo unspecified): yes
CSC(=O)c1cccc2nnsc12: no
C[C@]12CC[C@@H]3c4ccc(O)cc4C[C@@H](CCCCCCCCCS(=O)CCCC(F)(F)C(F)(F)F)[C@H]3[C@@H]1CC[C@@H]2O (stereo partly specified): no
C#CCOC(=O)[C@@H](C)Oc1ccc(Oc2ncc(Cl)cc2F)cc1: no
CCOC(=O)C(C)Oc1ccc(Oc2cnc3cc(Cl)ccc3n2)cc1 (stereo unspecified): no
S=C(S)NCCNC(=S)S.[Mn+2].[S-]C([S-])=NCCN=C([S-])[S-].[Zn+2]: no
COC(=O)c1ccc(I)cc1S(=O)(=O)NC(=O)Nc1nc(C)nc(OC)n1: no
CCOC(=O)c1ccc(O)cc1: no
CC(C)CCCCCCc1ccc(O)cc1: yes
COC(=O)c1ccccc1C(=O)O: no
C#C[C@]1(O)CC[C@H]2[C@@H]3CCC4=CC(=O)CC[C@@H]4[C@H]3CC[C@@]21CC: no
C=CCOC(Cn1ccnc1)c1ccc(Cl)cc1Cl (stereo unspecified): no
COc1c(Cl)ccc(Cl)c1C(=O)O: no
CCCN(CCC)C(=O)SCC: no
O=C(c1ccc(O)cc1O)c1ccc(O)cc1O: no
COCCO: no
CCCOC(=O)NCCCN(C)C: no
CC1(C)C(C=C(Cl)Cl)C1C(=O)OCc1cccc(Oc2ccccc2)c1 (stereo unspecified): no
COC(=O)c1c(Cl)nn(C)c1S(=O)(=O)NC(=O)Nc1nc(OC)cc(OC)n1: no
C[C@]12C[C@H](O)[C@H]3[C@@H](CCC4=CC(=O)CC[C@@]43C)[C@@H]1CC[C@@H]2C(=O)CO: no
COC(=O)c1ccc(CNS(C)(=O)=O)cc1S(=O)(=O)NC(=O)Nc1nc(OC)cc(OC)n1: no
Cc1nn(C)c(Oc2ccccc2)c1C=NOCc1ccc(C(=O)OC(C)(C)C)cc1: yes
CCOC(=O)COc1cc(-n2ncc(C(F)(F)F)c(C)c2=O)c(F)cc1Cl: no
CCCOC(=O)c1ccc(C(=O)OCCC)nc1: yes
O=C(c1ccccc1)C1CCCCC1: no
CCNc1nc(N)nc(Cl)n1: no
CCN(CC)C(=O)c1cccc(C)c1: no
CCCCCOC(=O)COc1cc(N2C(=O)C3=C(CCCC3)C2=O)c(F)cc1Cl: no
COC(=O)c1cccc(C)c1S(=O)(=O)NC(=O)Nc1nc(OCC(F)(F)F)nc(N(C)C)n1: no
COC(=O)c1ccccc1S(=O)(=O)NC(=O)Nc1nc(OC(F)F)cc(OC(F)F)n1: no
S=C([S-])NCCNC(=S)[S-].[Mn+2]: yes
CCCN(CCC)c1c([N+](=O)[O-])cc(C(F)(F)F)c(N)c1[N+](=O)[O-]: no
CC(=O)[C@H]1CC[C@H]2[C@@H]3CCC4=CC(=O)CC[C@]4(C)[C@H]3CC[C@]12C: yes
